logP values by entry
- experiment_summary: Measurement of log P values by HPLC on reversed phase columns (methods [a] pH 2.3, [b] pH 2.7, [c] pH 7.8)
- Assay type: physicochemical
- condition: HPLC reversed phase, method [b] (pH 2.7)

molecule="O=C(N[C@@H]1CC[C@@H]1c1ccccc1Cl)c1ccccc1Br (relative stereo) [Compound 253]" observed_value=3.18^[b]
molecule="O=C(N[C@@H]1CC[C@H]1c1ccc(Cl)cc1Cl)c1ccccc1I (relative stereo) [Example 264]" observed_value=4.09^[b]
molecule="O=C(N[C@@H]1CCC[C@@H]1c1ccc(C(F)(F)F)cc1)c1cccnc1Cl (relative stereo) [Example 315]" observed_value=3.04^[b]
molecule="O=C(NC1CCC1c1ccccc1C(F)(F)F)c1ncc(C(F)(F)F)cc1Cl (centres unmarked) [Example 437]" observed_value=3.88^[b]
molecule="O=C(N[C@@H]1CC[C@@H]1c1c(F)cccc1C(F)(F)F)c1ccccc1C(F)(F)F (relative stereo) [Compound 585]" observed_value=3.60^[b]
molecule="Cc1ccccc1C(=O)NC1CC1c1ccc(Cl)cc1 (centres unmarked) [Compound 276]" observed_value=2.76^[b]
molecule="O=C(N[C@@H]1CC[C@H]1c1ccc(F)cc1C(F)(F)F)c1ccccc1 (relative stereo) [Example 504]" observed_value=3.42^[b]

Pending molecule:
The value of logP measured for the molecule O=C(NC1CCCC1c1c(F)cccc1F)c1ccccc1C(F)(F)F (centres unmarked) [Compound 323] turned out to be 3.43^[b]

----------
- experiment_summary: Measurement of log P values by HPLC on reversed phase columns (methods [a] pH 2.3, [b] pH 2.7, [c] pH 7.8)
- Format: physicochemical
- condition: HPLC reversed phase, method [c] pH 7.8
experimental_readout: logP

Consider the worked cases shown below.
molecule="O=C(N[C@@H]1CCC[C@@H]1c1ccccc1F)c1c(F)cccc1F (relative stereo) [Example 328]" experimental_readout=logP observed_value=2.90^[c];
molecule="O=C(NC1CCCC1c1ccc(C(F)(F)F)cc1)c1ccccc1I (centres unmarked) [Example 363]" experimental_readout=logP observed_value=3.79^[c];
molecule="CC(C)Oc1ccc([C@H]2CCC[C@H]2NC(=O)c2ccccn2)cc1 (relative stereo) [Example 334]" experimental_readout=logP observed_value=2.46^[c];
molecule="O=C(NC1CC1c1ccc(Cl)cc1)c1c(F)cccc1Cl (centres unmarked) [Example 463]" experimental_readout=logP observed_value=2.75^[c];
molecule="O=C(NC1CCCC1c1ccc(C(F)(F)F)cc1)c1ccccc1Cl (centres unmarked) [Example 305]" experimental_readout=logP observed_value=3.63^[c];
molecule="O=C(N[C@@H]1CCC[C@@H]1c1ccccc1F)c1nccnc1Cl (relative stereo) [Example 336]" experimental_readout=logP observed_value=2.55^[c];

The value of logP measured for the molecule O=C(NC1CC1c1ccc(Cl)cc1)c1ccccc1C(F)F (centres unmarked) [Example 459] turned out to be 2.88^[c];

The value of logP measured for the molecule O=C(N[C@@H]1C[C@@H]1c1ccc(Cl)cc1)c1c(F)cccc1F (relative stereo) [Example 268] turned out to be 2.59^[c];

----------
- experiment_summary: Measurement of log P values by HPLC on reversed phase columns (methods [a] pH 2.3, [b] pH 2.7, [c] pH 7.8)
- Assay type: physicochemical
- condition: HPLC reversed phase, method [b] (pH 2.7)
logP values by entry

Consider the worked cases shown below.
compound="O=C(N[C@@H]1CC[C@H]1c1ccc(Cl)cc1Cl)c1ncccc1Cl (relative stereo) [Example 257]" observed_value=3.69^[b]
compound="O=C(N[C@@H]1CC[C@@H]1c1cc(F)ccc1C(F)(F)F)c1cccnc1 (relative stereo) [Compound 587]" observed_value=2.22^[b]
compound="O=C(NC1CCCCC1c1c(F)cccc1F)c1ccccc1Cl (stereo not drawn) [Example 396]" observed_value=3.68^[b]

The value of logP measured for the compound O=C(NC1CCC1c1ccccc1C(F)(F)F)c1ccccc1 (stereo not drawn) [Compound 426] turned out to be 3.08^[b]

The value of logP measured for the compound Cc1nc(C)c(C(=O)NC2CCCCC2c2ccccc2Br)s1 (stereo not drawn) [Example 401] turned out to be 3.35^[b]

The value of logP measured for the compound Cc1nn(C)cc1C(=O)NC1CCCC1c1ccccc1C(F)(F)F (stereo not drawn) [Example 310] turned out to be 2.47^[b]

The value of logP measured for the compound O=C(N[C@@H]1CC[C@@H]1c1cc(F)ccc1C(F)(F)F)c1c(F)cccc1F (relative stereo) [Compound 549] turned out to be 3.22^[b]

The value of logP measured for the compound O=C(NC1CCC1c1ccccc1Cl)c1cccc(Cl)c1 (stereo not drawn) [Example 445] turned out to be 3.75^[b]

The values you see were collected from patent US20160075653A1.
